Hey, just so you know, these numbers are from patent US20030166571A1.

- measurement-target: human ORL-1 receptor (opioid receptor like 1) (human, UniProt P41146 1-370)
- Sequence (P41146 whole entry): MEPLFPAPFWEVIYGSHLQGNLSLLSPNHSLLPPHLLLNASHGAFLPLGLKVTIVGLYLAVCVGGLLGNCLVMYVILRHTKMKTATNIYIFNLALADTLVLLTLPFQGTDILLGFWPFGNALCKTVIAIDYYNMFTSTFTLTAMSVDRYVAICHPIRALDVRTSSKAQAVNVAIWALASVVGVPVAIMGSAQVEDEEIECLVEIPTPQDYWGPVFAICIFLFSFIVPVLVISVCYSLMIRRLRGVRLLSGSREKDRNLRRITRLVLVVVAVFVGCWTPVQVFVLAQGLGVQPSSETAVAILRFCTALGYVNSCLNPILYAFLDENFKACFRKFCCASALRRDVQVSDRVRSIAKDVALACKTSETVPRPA
- protocol-summary: cell-based or functional assay
Square brackets hold non-standard residues; d marks the D form. Tyr(3-Cl) = N[C@@H](Cc1ccc(O)c(Cl)c1)C(=O)O; Phe(4-F) = N[C@@H](Cc1ccc(F)cc1)C(=O)O; Dmt = Cc1cc(O)cc(C)c1C[C@H](N)C(=O)O
As shown below, each of these binders has a reported % Stimulation of [35S]GTPγS binding value.
Respond numerically; units are % and should not be typed.

Ac-R[Phe(4-F)]YRWR-NH2 (SMILES CC(=O)N[C@@H](CCCNC(=N)N)C(=O)N[C@@H](Cc1ccc(F)cc1)C(=O)N[C@@H](Cc1ccc(O)cc1)C(=O)N[C@@H](CCCNC(=N)N)C(=O)N[C@@H](Cc1c[nH]c2ccccc12)C(=O)N[C@@H](CCCNC(=N)N)C(N)=O, also called Ac-Arg-Phe(4-F)-Tyr-Arg-Trp-Arg-NH2) [VII-31-B]; 54.4

## Task Quick one: % Stimulation of [35S]GTPγS binding for Ac-RY[Dmt]RWR-NH2 (SMILES CC(=O)N[C@@H](CCCNC(=N)N)C(=O)N[C@@H](Cc1ccc(O)cc1)C(=O)N[C@@H](Cc1c(C)cc(O)cc1C)C(=O)N[C@@H](CCCNC(=N)N)C(=O)N[C@@H](Cc1c[nH]c2ccccc12)C(=O)N[C@@H](CCCNC(=N)N)C(N)=O, also called Ac-Arg-Tyr-Tyr(2,6-di-Me)-Arg-Trp-Arg-NH2) [VII-73-A] ?
## Result 52.7

## Task Now the binder Ac-R[Tyr(3-Cl)]YRWR-NH2 (SMILES CC(=O)N[C@@H](CCCNC(=N)N)C(=O)N[C@@H](Cc1ccc(O)c(Cl)c1)C(=O)N[C@@H](Cc1ccc(O)cc1)C(=O)N[C@@H](CCCNC(=N)N)C(=O)N[C@@H](Cc1c[nH]c2ccccc12)C(=O)N[C@@H](CCCNC(=N)N)C(N)=O, also called Ac-Arg-Tyr(3-Cl)-Tyr-Arg-Trp-Arg-NH2) [VII-87-B]
## Result 72
